// cross-source set; read-out = pKi; system = D(1B) dopamine receptor (Homo sapiens, UniProt P21918)
Sequence (P21918 whole entry): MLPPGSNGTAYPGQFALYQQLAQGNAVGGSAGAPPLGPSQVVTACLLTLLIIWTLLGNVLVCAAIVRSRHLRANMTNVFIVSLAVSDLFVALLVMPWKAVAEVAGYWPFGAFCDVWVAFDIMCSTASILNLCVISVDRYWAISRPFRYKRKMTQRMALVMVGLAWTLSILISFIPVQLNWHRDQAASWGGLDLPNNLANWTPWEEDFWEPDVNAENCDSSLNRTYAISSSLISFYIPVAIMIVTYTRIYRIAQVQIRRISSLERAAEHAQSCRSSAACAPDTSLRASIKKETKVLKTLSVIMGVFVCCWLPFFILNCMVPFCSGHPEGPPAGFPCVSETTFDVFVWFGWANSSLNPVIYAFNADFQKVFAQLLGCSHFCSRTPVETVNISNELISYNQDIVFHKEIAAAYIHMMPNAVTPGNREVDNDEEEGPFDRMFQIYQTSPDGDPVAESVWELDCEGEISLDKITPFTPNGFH
Answers are plain numbers, as −log10 of the molar value.

molecule | pKi
CCO/N=C/c1cccc2c1CC[C@H]1[C@H]2c2cc(O)c(Cl)cc2CCN1C | 8.00
Oc1ccc2c(c1)CCN1Cc3ccccc3CC21 (configuration not stated) | 7.39
COc1cc2c(cc1O)C(c1ccccc1Cl)CNCC2 (configuration not stated) | 6.32
Fc1ccc(OCCCN2CCN(c3ccc(Cl)cc3)CC2)cc1 | 5.57
CN1CCc2cc(Cl)c(O)cc2[C@H]2c3cccc(C#N)c3CC[C@@H]21 | 7.05

Take each entry in turn and give its pKi.
1. CO/N=C/c1cccc2c1CC[C@H]1[C@H]2c2cc(O)c(Cl)cc2CCN1C
2. CN1CCCc2cc(O)ccc2Cc2ccccc2C1
3. CC(C)(C)OC(=O)NCC#Cc1ccc2c(c1)C=C([N+](=O)[O-])C(C(F)(F)F)O2 (configuration not stated)
4. O=[N+]([O-])C1=Cc2cc(C#Cc3ccc(CO)cc3)ccc2OC1C(F)(F)F (racemic)

[7.66, 5.74, 5.90, 6.22]

Give pKi for each of the items listed below.
1. COc1ccccc1N1CCN(CCCNC(=O)Nc2ccccc2-c2ccccc2)CC1
2. Cc1ccc(N2CCN(CCCCc3ccc(F)cc3)CC2)nc1

1: 5.35; 2: 5.49

Batch: pKi for all items listed.
1. Fc1ccc(SCCCN2CCN(c3ccc(Cl)cc3)CC2)cc1
2. Oc1cc2c(cc1O)C(c1ccccc1Br)CNCC2 (configuration not stated)
3. Cc1ccc(N2CCN(CCCSc3ccc(F)cc3)CC2)nc1
4. CCN(CC)CCCOc1cccc(N2C(=O)/C(=N/c3cccc(C(F)(F)F)c3)c3ccccc32)c1

[5.55, 7.17, 5.67, 6.39]
